Reference source: patent US20260184710A1

Provide the reported Dmax of each item.
- measured_on: Cbl-b (Homo sapiens, UniProt Q13191)
- Construct: Cbl-b-HiBit KI Jurkat Cells were purchased from Promega; host or cells: Cbl-b-HiBiT knock-in Jurkat cells
- Sequence (Q13191 whole entry): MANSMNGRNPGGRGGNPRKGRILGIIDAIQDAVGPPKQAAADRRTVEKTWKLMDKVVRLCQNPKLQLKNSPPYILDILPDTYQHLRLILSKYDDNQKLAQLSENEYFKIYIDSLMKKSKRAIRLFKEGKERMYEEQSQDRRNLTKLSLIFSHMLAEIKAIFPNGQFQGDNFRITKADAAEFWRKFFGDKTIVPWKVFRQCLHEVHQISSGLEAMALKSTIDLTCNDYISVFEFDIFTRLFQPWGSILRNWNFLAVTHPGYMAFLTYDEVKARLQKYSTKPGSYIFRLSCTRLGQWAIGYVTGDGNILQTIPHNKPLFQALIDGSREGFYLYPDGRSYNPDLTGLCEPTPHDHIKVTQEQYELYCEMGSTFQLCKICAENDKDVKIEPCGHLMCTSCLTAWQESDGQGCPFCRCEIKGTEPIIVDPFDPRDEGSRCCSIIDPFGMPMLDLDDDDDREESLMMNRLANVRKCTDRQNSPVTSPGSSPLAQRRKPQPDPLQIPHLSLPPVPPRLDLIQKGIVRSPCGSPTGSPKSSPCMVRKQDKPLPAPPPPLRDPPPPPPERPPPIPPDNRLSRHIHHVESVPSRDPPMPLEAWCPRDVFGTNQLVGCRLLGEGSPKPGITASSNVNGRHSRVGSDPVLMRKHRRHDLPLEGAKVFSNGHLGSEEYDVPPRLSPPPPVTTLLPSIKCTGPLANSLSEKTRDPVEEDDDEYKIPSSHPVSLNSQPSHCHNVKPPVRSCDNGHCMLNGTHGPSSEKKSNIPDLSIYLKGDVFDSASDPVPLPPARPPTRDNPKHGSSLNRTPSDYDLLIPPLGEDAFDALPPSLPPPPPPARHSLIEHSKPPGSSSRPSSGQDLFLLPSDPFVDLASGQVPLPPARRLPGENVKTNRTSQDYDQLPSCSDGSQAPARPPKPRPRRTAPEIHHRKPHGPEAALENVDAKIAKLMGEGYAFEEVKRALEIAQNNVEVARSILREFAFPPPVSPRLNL
- assay_summary: Cbl-b Degradation Method A (FACS, anti-Cbl-b antibody staining)
- Format: cell-based
- conditions_used: Jurkat, Cbl-b-HiBit KI Jurkat Cells, incubated at least 20 hours; maximum degradation observed; read-out: Cbl-b Degredation Method A Dmax (%)

**Query** Reported Dmax for Cc1cc(N2CCC(CN3CCC4(CCN(c5cc6c(c(C(F)(F)F)c5)CN(c5cccc([C@]7(Cc8nncn8C)C[C@@H](C#N)C7)c5)C6=O)C4)C3)CC2)c(F)c2c1C(=O)N(C1CCC(=O)NC1=O)C2 (stereo partly drawn) : what is it?
**Result** 35 to 70%

**Query** What value of Dmax has been reported for the following compound? Cn1cnnc1CC1(c2cccc(N3Cc4c(cc(N5CC6(CN(c7ccc8c(c7)C(=O)N(C7CCC(=O)NC7=O)C8=O)C6)C5)cc4C(F)(F)F)C3=O)c2)COC1 (stereo not drawn)
**Result** 35 to 70%

**Query** Name the recorded Dmax for Cn1cnnc1CC1(c2cccc(N3Cc4c(cc(N5CCC[C@H](CN6CCC(CN7CCC(CN8CCN(c9ccc%10c(c9)C(=O)N(C9CCC(=O)NC9=O)C%10=O)CC8)CC7)CC6)C5)cc4C(F)(F)F)C3=O)c2)COC1 (stereo partly drawn) .
**Result** > 70%

**Query** What does the record list as Dmax for Cn1cnnc1CC1(c2cccc(N3Cc4c(cc(N5CC(CC6CN(c7ccc8c(c7)C(=O)N(C7CCC(=O)NC7=O)C8=O)C6)C5)cc4C(F)(F)F)C3=O)c2)COC1 (stereo not drawn) ?
**Result** 35 to 70%

**Query** Consider the compound Cn1cnnc1CC1(c2cccc(N3Cc4c(cc(CN5CCC[C@@H](CN6CCC(CC7CCN(c8ccc9c(c8)C(=O)N(C8CCC(=O)NC8=O)C9=O)CC7)CC6)C5)cc4C(F)(F)F)C3=O)c2)COC1 (stereo partly drawn) and give its measured Dmax.
**Result** < 35%

**Query** Record request: Dmax value, item Cn1cnnc1CC1(c2cccc(N3Cc4c(cc(N5CCC(COCCOc6ccc7c(c6)C(=O)N(C6CCC(=O)NC6=O)C7=O)CC5)cc4C(F)(F)F)C3=O)c2)COC1 (stereo not drawn)
**Result** 35 to 70%

**Query** Which Dmax reading was recorded for the compound Cn1cnnc1CC1(c2cccc(N3Cc4c(cc(CN5CCC(N6CC7(CN(c8ccc9c(c8)C(=O)N(C8CCC(=O)NC8=O)C9=O)C7)C6)CC5)cc4C(F)(F)F)C3=O)c2)COC1 (stereo not drawn) ?
**Result** > 70%

**Query** Suppose we examine the compound CC1CN(C[C@H]2CC[C@H](OC3CCN(c4ccc5c(n4)C(C)N(C4CCC(=O)NC4=O)C5=O)CC3)CC2)CCN1Cc1cc2c(c(C(F)(F)F)c1)CN(c1cccc(C3(Cc4nncn4C)CCC3)c1)C2=O (stereo partly drawn) ; what Dmax value has been reported?
**Result** 35 to 70%

**Query** Dear colleague, I am looking for the recorded Dmax of the following compound: Cn1cnnc1CC1(c2cccc(N3Cc4c(cc(CN5CCC[C@H](CN6CCC(CN7CCC(CN8CCN(c9ccc%10c(c9)C(=O)N(C9CCC(=O)NC9=O)C%10=O)CC8)CC7)CC6)C5)cc4C(F)(F)F)C3=O)c2)COC1 (stereo partly drawn)
**Result** > 70%

**Query** Recorded Dmax for Cn1cnnc1CC1(c2cccc(N3Cc4c(cc(N5CC6(CCN(CC7CCN(c8cccc9c8CN(C8CCC(=O)NC8=O)C9=O)CC7)CC6)C5)cc4C(F)(F)F)C3=O)c2)COC1 (stereo not drawn) , please?
**Result** < 35%

**Query** So what's the measured Dmax for this one? COC1CC(Cc2nncn2C)(c2cccc(N3Cc4c(cc(CN5CCN(C[C@H]6CC[C@H](OC7CCN(c8ccc9c(n8)C(C)N(C8CCC(=O)NC8=O)C9=O)CC7)CC6)CC5(C)C)cc4C(F)(F)F)C3=O)c2)C1 (stereo partly drawn)
**Result** > 70%

**Query** Reported Dmax, compound Cn1cnnc1C[C@]1(c2cccc(N3Cc4c(cc(N5CC6(CCN(CC7CCN(c8ccc9c(c8)C(=O)N(C8CCC(=O)NC8=O)C9=O)CC7)CC6)C5)cc4C(F)(F)F)C3=O)c2)C[C@H](C#N)C1 (stereo partly drawn) : ____
**Result** 35 to 70%

**Query** Entry under review: CC(C)n1c(=O)n(C2CCC(=O)NC2=O)c2cccc(N3CCC(O[C@H]4CC[C@H](CN5CCN(Cc6cc7c(c(C(F)(F)F)c6)CN(c6cccc([C@]8(Cc9nncn9C)C[C@@H](C#N)C8)c6)C7=O)C6(COC6)C5)CC4)CC3)c21 (stereo partly drawn) . Reported Dmax?
**Result** > 70%

**Query** Quick one: Dmax for Cn1cnnc1CC1(c2cccc(N3Cc4c(cc(N5CC6(CCN(CC7CCN(c8ccc9c(n8)CN(C8CCC(=O)NC8=O)C9=O)CC7)CC6)C5)cc4C(F)(F)F)C3=O)c2)COC1 (stereo not drawn) ?
**Result** 35 to 70%

**Query** State the recorded Dmax for this entry: COc1c(N2CCC(O[C@H]3CC[C@H](CN4CCC5(CC4)CN(c4cc6c(c(C(F)(F)F)c4)CN(c4cccc([C@]7(Cc8nncn8C)C[C@@H](C#N)C7)c4)C6=O)C5)CC3)CC2)ccc2c1CN(C1CCC(=O)NC1=O)C2=O (stereo partly drawn)
**Result** 35 to 70%

**Query** Query (compound): CC1c2nc(N3CCC(O[C@H]4CC[C@H](CN5CCC6(CC5)CN(c5cc7c(c(C(F)(F)F)c5)CN(c5cccc([C@]8(Cc9nncn9C)C[C@@H](C#N)C8)c5)C7=O)C6)CC4)CC3)ccc2C(=O)N1C1CCC(=O)NC1=O (stereo partly drawn) ; field requested: Dmax
**Result** > 70%

**Query** Consider the compound Cn1cnnc1CC1(c2cccc(N3Cc4c(cc(CN5CCC(N6CCC7(CCN(c8ccc9c(c8)C(=O)N(C8CCC(=O)NC8=O)C9=O)CC7)CC6)CC5)cc4C(F)(F)F)C3=O)c2)COC1 (stereo not drawn) and give its measured Dmax.
**Result** < 35%

**Query** Quick check: Dmax of CC1c2nc(N3CCC(O[C@H]4CC[C@H](CN5C[C@H]6C[C@@H]5CN6Cc5cc6c(c(C(F)(F)F)c5)CN(c5cccc([C@]7(Cc8nncn8C)C[C@@H](C#N)C7)c5)C6=O)CC4)CC3)ccc2C(=O)N1C1CCC(=O)NC1=O (stereo partly drawn) ?
**Result** 35 to 70%
